Field: IC50. Provide a value for each of the molecules that follow.
Tested on: Trypanosoma cruzi
PROTOCOL TEXT: Antitrypanosomal activity against Trypanosoma cruzi
Format: functional, organism-based
Give bare numbers, in µM.

Recorded IC50, per entry:
Cc1ccc(-c2nc3c([nH]2)c2c(c4ccccc43)OC(C)(C)CC2)cc1 = 15.5
CC1(C)CCc2c(c3ccccc3c3nc(-c4c[nH]c5ccccc45)[nH]c23)O1 = 15.4

Lab note: next molecule to report on.
Exam item: Would you mind telling me what IC50 value was observed for `CC1(C)CCc2c(c3ccccc3c3nc(-c4ccccc4)[nH]c23)O1` ?
Marked response: 39.4

* * *

Field: IC50. Provide a value for each of the molecules that follow.
System: Trypanosoma cruzi
PROTOCOL TEXT: Antitrypanosomal activity against Trypanosoma cruzi after 24 hrs
Format: functional, organism-based

CC1(C)CCc2c(c3ccccc3c3nc(-c4ccccc4)oc23)O1 = 284 µM

Exam item: So what IC50 did `CC1(C)CCc2c(c3ccccc3c3ncoc23)O1` get with Trypanosoma cruzi?
Marked response: 325 µM

* * *

PROTOCOL TEXT: Cytotoxicity against human HepG cells
Format: functional, cell-based
RECORDED METRIC: pIC50
Answers are plain numbers, as −log10 of the molar value.

O=C1C(=O)c2ccccc2C2=C1CCCO2 = 6.04

Lab note: next compound to report on.
Exam item: Would you mind telling me what pIC50 value was observed for `O=C1C(=O)c2ccccc2C2=C1CCO2` ?
Marked response: 6.04
